Hello, the source for this data is patent US10004701B2, in case you need it.

test system: S. aureus strain USA300-0114; assay: AK assay 384-well format, Prestwick library screening; format: cell-based, Staphylococcus aureus; conditions: Staphylococcus aureus, USA300, 3 h, planktonic S. aureus; 50 μM final drug concentration; […]; read-out: AK-based Prestwick library screening result, S. aureus (fold increase in extracellular AK activity)
Would you mind telling me the reported fold induction at 50 µM of each entry?
One number for each entry.

Please review the entries below; each comes with its answer.
[[record]]
compound = "O=S(=O)(O)c1cc(O)ccc1O [Ethamsylate]"
target_under_test = "S. aureus strain USA300-0114"
experimental_readout = "fold induction at 50 µM"
measured_value = 1

[[record]]
compound = "CC(C)(C)C(=O)OCOC(=O)[C@@H]1N2C(=O)[C@@H](NC(=O)[C@H](N)c3ccccc3)[C@H]2SC1(C)C"
target_under_test = "S. aureus strain USA300-0114"
experimental_readout = "fold induction at 50 µM"
measured_value = 0.4

[[record]]
compound = "C[C@]12C[C@H]3S[C@H]3C[C@@H]1CC[C@@H]1[C@@H]2CC[C@]2(C)[C@@H](O)CC[C@@H]12 [Epitiostanol]"
target_under_test = "S. aureus strain USA300-0114"
experimental_readout = "fold induction at 50 µM"
measured_value = 0.9


I'd like to know its fold induction at 50 µM. The compound in question is CCN1C[C@]2(COC)CC[C@H](O)[C@@]34C5C[C@@H]6[C@@H](OC)C[C@](O)(C(CC23)C14)C5[C@H]6OC(C)=O (stereo partly shown)
1.1

---

Provide the reported fold induction at 50 µM of each item.
test system: E. faecium; experiment: AK assay 384-well format, Prestwick library screening; assay type: cell-based, Enterococcus faecium; settings: Enterococcus faecium, 3 h, 50 μM final drug concentration; planktonic; […]; read-out: AK-based Prestwick Library Screening Results, E. faecium (fold increase in extracellular AK activity)
Where a name gives a salt, the structure may show the parent alone.
Numbers only.

Example results:
[[record]]
compound = "COc1ccc2c(c1)[nH]c1c(C)nccc12 [Harmine hydrochloride]"
measured_value = 1.1

[[record]]
compound = "CN(CCCCCCCCCCN(C)C(=O)Oc1cccc([N+](C)(C)C)c1)C(=O)Oc1cccc([N+](C)(C)C)c1 [Demecarium bromide]"
measured_value = 1

[[record]]
compound = "C[C@@]12C(=O)OC(=O)[C@]1(C)[C@H]1CC[C@@H]2O1"
measured_value = 0.8


Batch request: fold induction at 50 µM per item, same order as input.
1. C[C@@H]1CC[C@@]2(NC1)O[C@H]1C[C@H]3[C@@H]4CC=C5C[C@@H](O)CC[C@]5(C)[C@H]4CC[C@]3(C)[C@H]1[C@@H]2C
2. CCN1C[C@]2(C)CC[C@H](OC)[C@@]34C1[C@]1(OCO[C@@]15C[C@H](OC)[C@H]1C[C@]3(O)[C@@H]5[C@H]1OC)[C@@H](OC(C)=O)[C@H]24
3. CNC[C@H](O)[C@@H](O)[C@H](O)[C@H](O)CO
4. C#CCN(C)[C@H](C)Cc1ccccc1 [Selegiline hydrochloride]
5. CCn1cc(C(=O)O)c(=O)c2cnc(N3CCNCC3)nc21
6. CCN1C[C@]2(COC)CC[C@H](O)[C@]34C1[C@@](O)([C@@H](OC)[C@H]23)[C@@]1(O)C[C@H](OC)[C@H]2C[C@@H]4[C@@H]1[C@H]2OC

0.9
0.9
0.8
1
1.1
0.9
